Biological target: T1, human Nectin-4 extracellular antigen hNectin-4-His (human, UniProt Q96NY8 32-349)
T1 construct: C-terminal 8xHis tag included
T1 sequence: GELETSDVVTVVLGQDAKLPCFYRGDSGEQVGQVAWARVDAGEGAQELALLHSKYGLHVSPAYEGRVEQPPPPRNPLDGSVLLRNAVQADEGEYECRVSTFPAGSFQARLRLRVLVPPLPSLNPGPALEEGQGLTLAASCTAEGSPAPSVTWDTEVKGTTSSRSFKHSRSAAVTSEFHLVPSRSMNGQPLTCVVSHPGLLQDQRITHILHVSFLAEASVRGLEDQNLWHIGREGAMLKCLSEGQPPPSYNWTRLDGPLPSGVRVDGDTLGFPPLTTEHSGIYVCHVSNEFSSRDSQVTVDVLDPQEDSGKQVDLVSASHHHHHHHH
Experiment: ELISA, phage scFv supernatant 1:50

| Binder | Output Unit | OD value |
| --- | --- | --- |
| 10F4-1A3 scFv (scFv, V domains shown, phage clone supernatant) VH: EVQLVESGGGLVQPGGSLRLSCAASGYSFSNYDMSWVRQAPGKGLEWVSGIKGWKSYTGYADSVKGRFTISRDNSKNTLYLQMNSLRAEDTAVYYCAREYSDVVDYVSVRTPLDYWGQGTLVTVSS VL: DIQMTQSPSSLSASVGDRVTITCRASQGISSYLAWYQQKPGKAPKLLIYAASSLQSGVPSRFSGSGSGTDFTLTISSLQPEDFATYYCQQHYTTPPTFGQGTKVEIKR | OD | 1.53 |
| 1G8-1E6 scFv (scFv, V domains shown, phage clone supernatant) VH: EVQLVESGGGLVQPGGSLRLSCAASGYIFTDYSMSWVRQAPGKGLEWVSRIYTDGWEKDYADSVKGRFTISRDNSKNTLYLQMNSLRAEDTAVYYCARQTEDRSYGYDLDYWGQGTLVTVSS VL: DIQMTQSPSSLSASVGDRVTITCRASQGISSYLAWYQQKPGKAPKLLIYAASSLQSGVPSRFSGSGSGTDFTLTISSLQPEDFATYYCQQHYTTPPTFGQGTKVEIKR | OD | 1.48 |
| 1F3-1A9 scFv (scFv, V domains shown, phage clone supernatant) VH: EVQLVESGGGLVQPGGSLRLSCAASGYSFDNYAMSWVRQAPGKGLEWVSRISPTGGYASYADSVKGRFTISRDNSKNTLYLQMNSLRAEDTAVYYCARAELLAFDVYTASDYWGQGTLVTVSS VL: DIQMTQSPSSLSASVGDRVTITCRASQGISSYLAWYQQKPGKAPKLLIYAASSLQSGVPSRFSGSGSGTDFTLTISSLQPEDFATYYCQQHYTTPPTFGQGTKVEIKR | OD | 1.64 |
| 1G8-2G4 scFv (scFv, V domains shown, phage clone supernatant) VH: EVQLVESGGGLVQPGGSLRLSCAASGFTFGGYSMSWVRQAPGKGLEWVSRISTDGAYTNYADSVKGRFTISRDNSKNTLYLQMNSLRAEDTAVYYCARQTEDRSYGYDLDYWGQGTLVTVSS VL: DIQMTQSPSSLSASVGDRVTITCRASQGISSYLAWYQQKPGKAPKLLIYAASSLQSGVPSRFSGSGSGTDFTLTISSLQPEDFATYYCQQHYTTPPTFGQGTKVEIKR | OD | 1.58 |
| 1F3-2B1 scFv (scFv, V domains shown, phage clone supernatant) VH: EVQLVESGGGLVQPGGSLRLSCAASGYNFDNYAMSWVRQAPGKGLEWVSGIKPDSATTYYADSVKGRFTISRDNSKNTLYLQMNSLRAEDTAVYYCARAELLAFDVYTASDYWGQGTLVTVSS VL: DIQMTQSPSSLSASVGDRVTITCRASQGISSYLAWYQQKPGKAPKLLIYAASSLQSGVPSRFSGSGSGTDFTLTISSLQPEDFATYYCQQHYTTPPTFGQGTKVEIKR | OD | 1.62 |

All values here come from patent US20260144882A1.
